The reported numbers originate from patent US20060276407A1.

- ASSAY_TEXT: Multiple oral dosing for 14 days, pharmacokinetics in HCV infected subjects (Example 3)
- Type: in vivo, human
- EXPERIMENTAL_CONDITIONS: human, plasma, oral, 200 mg, Day 1, 200 mg BID, mean, n = 12
PROPERTY_NAME: Cmax (ng/mL)
Reply numerically in ng/mL, unit not repeated.

// lookup Cmax for CC(C)(C)NC(=O)N[C@H](C(=O)N1C[C@H]2[C@@H]([C@H]1C(=O)NC(CC1CCC1)C(=O)C(N)=O)C2(C)C)C(C)(C)C (mixture of isomers)
324

###

- ASSAY_TEXT: Food-effect crossover bioavailability study, 600 mg fed vs fasted, healthy adult subjects (Example 2)
- Format: in vivo, human
- EXPERIMENTAL_CONDITIONS: both sexes, human, plasma, po, 600 mg, 600 mg PO, fed (high-fat breakfast), mean, balanced data; read-out: t½ (converted)
PROPERTY_NAME: half-life (h)
Value expressed in h; do not type the unit.

May I ask what half-life has been recorded for CC(C)(C)NC(=O)N[C@H](C(=O)N1C[C@H]2[C@@H]([C@H]1C(=O)NC(CC1CCC1)C(=O)C(N)=O)C2(C)C)C(C)(C)C (mixture of isomers) ?
4.72

###

- ASSAY_TEXT: Phase 1 rising-single-dose pharmacokinetic study in healthy adult subjects (Example 1)
- Format: in vivo, human
- EXPERIMENTAL_CONDITIONS: human, plasma; single oral dose 600 mg, median, n = 6; read-out: Tmax
PROPERTY_NAME: Tmax (h)
Give the quantity in h, number only.

Endpoint output: Tmax of CC(C)(C)NC(=O)N[C@H](C(=O)N1C[C@H]2[C@@H]([C@H]1C(=O)NC(CC1CCC1)C(=O)C(N)=O)C2(C)C)C(C)(C)C (mixture of isomers) . Value?
2.25

###

- ASSAY_TEXT: Food-effect crossover bioavailability study, 600 mg fed vs fasted, healthy adult subjects (Example 2)
- Type: in vivo, human
- EXPERIMENTAL_CONDITIONS: both sexes, human, plasma, po, 600 mg, 600 mg PO, fed, mean
PROPERTY_NAME: concentration at 12 hours (ng/mL)
Field format: number, assumed ng/mL, no unit text.

Returns the measured concentration at 12 hours for the input compound. Input: CC(C)(C)NC(=O)N[C@H](C(=O)N1C[C@H]2[C@@H]([C@H]1C(=O)NC(CC1CCC1)C(=O)C(N)=O)C2(C)C)C(C)(C)C (mixture of isomers)
63.5

###

- ASSAY_TEXT: Food-effect crossover bioavailability study, 600 mg fed vs fasted, healthy adult subjects (Example 2)
- Type: in vivo, human
- EXPERIMENTAL_CONDITIONS: both sexes, human, plasma, po, 600 mg, 600 mg PO, fasted, Min
PROPERTY_NAME: concentration at 8 hours (ng/mL)
Expressed in ng/mL, but write only the number.

Bench note: what concentration at 8 hours did CC(C)(C)NC(=O)N[C@H](C(=O)N1C[C@H]2[C@@H]([C@H]1C(=O)NC(CC1CCC1)C(=O)C(N)=O)C2(C)C)C(C)(C)C (mixture of isomers) [Formula Ia] show?
8.5

###

- ASSAY_TEXT: Food-effect crossover bioavailability study, 600 mg fed vs fasted, healthy adult subjects (Example 2)
- Type: in vivo, human
- EXPERIMENTAL_CONDITIONS: both sexes, human, plasma, po, 600 mg, 600 mg PO, fasted, mean
PROPERTY_NAME: concentration at 12 hours
Mention the unit after the number when you answer.

Entry under review: CC(C)(C)NC(=O)N[C@H](C(=O)N1C[C@H]2[C@@H]([C@H]1C(=O)NC(CC1CCC1)C(=O)C(N)=O)C2(C)C)C(C)(C)C (mixture of isomers) . Reported concentration at 12 hours?
14.2 ng/mL
